Numbers sourced from patent US9186360B2.

Quick reference for log10 of IC50 among some compounds
# systemName: human TRPA1 (Homo sapiens (Human), UniProt O75762)
# Sequence (O75762 whole entry): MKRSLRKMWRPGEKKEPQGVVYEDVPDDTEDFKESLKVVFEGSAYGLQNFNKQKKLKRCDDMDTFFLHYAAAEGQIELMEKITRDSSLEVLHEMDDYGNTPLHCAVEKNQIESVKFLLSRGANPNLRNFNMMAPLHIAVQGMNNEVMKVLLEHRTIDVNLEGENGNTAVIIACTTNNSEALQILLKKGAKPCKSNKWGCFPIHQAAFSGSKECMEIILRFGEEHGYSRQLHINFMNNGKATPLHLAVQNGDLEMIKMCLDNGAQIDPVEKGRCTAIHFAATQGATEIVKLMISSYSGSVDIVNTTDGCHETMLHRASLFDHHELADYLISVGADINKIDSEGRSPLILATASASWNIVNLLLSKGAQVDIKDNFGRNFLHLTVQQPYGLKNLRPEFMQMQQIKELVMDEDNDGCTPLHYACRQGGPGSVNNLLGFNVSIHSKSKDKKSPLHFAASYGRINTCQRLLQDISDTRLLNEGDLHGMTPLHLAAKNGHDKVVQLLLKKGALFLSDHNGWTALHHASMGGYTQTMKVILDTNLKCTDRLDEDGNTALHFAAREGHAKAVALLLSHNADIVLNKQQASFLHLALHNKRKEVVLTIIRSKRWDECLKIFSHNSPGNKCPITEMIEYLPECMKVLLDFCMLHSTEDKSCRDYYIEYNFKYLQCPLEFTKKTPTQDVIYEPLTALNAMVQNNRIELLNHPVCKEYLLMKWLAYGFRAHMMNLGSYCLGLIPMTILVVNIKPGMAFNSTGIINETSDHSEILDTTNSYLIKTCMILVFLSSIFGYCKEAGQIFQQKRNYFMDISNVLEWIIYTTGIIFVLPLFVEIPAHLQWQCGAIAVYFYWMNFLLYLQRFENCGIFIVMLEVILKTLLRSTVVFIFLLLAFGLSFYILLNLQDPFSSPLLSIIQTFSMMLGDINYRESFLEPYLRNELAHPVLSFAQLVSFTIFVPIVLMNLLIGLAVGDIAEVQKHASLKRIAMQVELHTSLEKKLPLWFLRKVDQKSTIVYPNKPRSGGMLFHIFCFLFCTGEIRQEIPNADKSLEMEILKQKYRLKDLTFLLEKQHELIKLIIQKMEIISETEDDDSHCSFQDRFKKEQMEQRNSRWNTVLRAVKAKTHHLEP
# assayText: 45Calcium uptake assay, AITC induced, human TRPA1 expressing CHO cells
# conditions: AITC 30 micromolar, read-out: IC50 values hTRPA1
Response schema: value (number) is log10 of IC50 in units of nM.

INSERT INTO results (compound, val) VALUES
  ('Cn1c(=O)c2c(CC(=O)Nc3nc(-c4ccc(C(C)(C)C)cc4)cs3)cccc2n(C)c1=O [Compound 12]', 1.71),
  ('Cn1c(=O)c2c(CC(=O)Nc3nc(-c4ccc(C(F)(F)F)c(F)c4)cs3)ccnc2n(C)c1=O [Compound 85]', 0.95),
  ('Cc1oc2c(c1CC(=O)Nc1nc(-c3ccc(C(F)(F)F)cc3F)cs1)c(=O)n(C)c(=O)n2C [Compound 65]', 0.82),
  ('Cn1c(=O)c2c(CC(=O)Nc3nc(-c4cc(F)c(OCC(F)(F)F)c(Cl)c4)cs3)coc2n(C)c1=O [Compound 60]', 0.55),
  ('Cc1oc2c(c1CC(=O)Nc1nc(-c3ccc(C(F)(F)F)c(F)c3F)cs1)c(=O)n(C)c(=O)n2C [Compound 76]', 0.60),
  ('Cn1c(=O)c2c(CC(=O)Nc3nc(-c4cc(F)cc(C(F)(F)F)c4)cs3)coc2n(C)c1=O [Compound 55]', 0.33),
  ('Cn1c(=O)c2c(CC(=O)Nc3nc(-c4ccc(C(F)(F)F)c(F)c4F)cs3)c(Cl)oc2n(C)c1=O [Compound 104]', 0.88),
  ('Cc1oc2c(c1CC(=O)Nc1nc(-c3ccc(OCC(F)(F)F)c(Cl)c3)cs1)c(=O)n(C)c(=O)n2C [Compound 74]', 0.72),
  ('Cc1oc2c(c1CC(=O)Nc1nc(-c3cc(F)c(C(F)(F)F)c(F)c3)cs1)c(=O)n(C)c(=O)n2C [Compound 72]', 0.62),
  ('Cc1sc2c(c1CC(=O)Nc1nc(-c3ccc(Cl)c(Cl)c3)cs1)c(=O)n(C)c(=O)n2C [Compound 47]', 1.53);

## Task Give reported log10 of IC50 value for Cn1c(=O)c2c(CC(=O)Nc3nc(-c4cccc(C(F)(F)F)c4F)cs3)coc2n(C)c1=O [Compound 59]
## Result 0.34

## Task # return recorded log10 of IC50 for input CC(C)COc1ccc(-c2csc(NC(=O)Cc3cccc4c3c(=O)n(C)c(=O)n4C)n2)cc1 [Compound 23]
## Result 1.64

## Task Dear colleague, please send me the reported log10 of IC50 for Cc1oc2c(c1CC(=O)Nc1nc(-c3ccc(F)c(C(F)(F)F)c3)cs1)c(=O)n(C)c(=O)n2C [Compound 69] when you can.
## Result 0.85
